Every entry's value here was drawn from the RNAGym collection of RNA variant scans (doi:10.7554/elife.80360).

B1: HDV Ribozyme (parent)
chain: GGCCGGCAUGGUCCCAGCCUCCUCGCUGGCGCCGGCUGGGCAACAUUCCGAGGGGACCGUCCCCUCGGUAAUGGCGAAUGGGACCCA

Variants of: B1
Experimental protocol: self-cleavage, relative activity (ratio to wild type); higher = more cleavage; co-transcriptional
// false strictly below 0.3 in self-cleavage; true otherwise

Mutation name	Assigned class
G50C C63G	false
C41A U72G	true
G40C C62A	false

Check if self-cleavage >= 0.3 (inclusive). Item: G1A C32U
false

Check if self-cleavage >= 0.3 (inclusive). Item: C4U A78G
true
